Measured GI50, listed per entry.
- System: SNB-19
- assay.protocol: NCI tumour cell line growth inhibition, 48 h
Activity calls are given as the source filed them. No stated cut-off is given here; in the data, active = GI50 up to about 1.1 µM and inactive = higher.

# example entries with known answers
smiles	quantity	recorded.result
Cc1cc(N(CCC#N)CCC#N)ccc1C(/N=N/c1ccc([N+](=O)[O-])cc1)=N\NC(=O)c1cc(Cl)ccc1C(=O)c1ccccc1	GI50	46.7 µM (inactive)
O=C(/C=C/c1ccccc1)Nc1ccccc1SCCCCl	GI50	19.1 µM (inactive)
O=C(Nc1ccc2ccccc2c1)Nn1cnnc1	GI50	> 100 µM (inactive)
Cc1cc2ccccc2c[n+]1CC(=O)CC([O-])(C(F)(F)F)C(F)(F)F	GI50	> 100 µM (inactive)

Exercise: Return GI50 for the following compound: "COc1ncc(C=C(C#N)C#N)c(OC)n1"
Key: 52.6 µM (inactive)
